# credit: the supplement of paper PMC10127200

# reported Euclidean distance; entries follow
# Test system: A549
# measurement-protocol: Euclidean distance of Cell Painting phenotypic profile (signed KS, 77 features) to DMSO centroid (dimensionless distance); 5 or 10 uM (library dependent); higher = stronger phenotypic change vs DMSO (phenoactivity)
# measurement-setup: 48 h
Just the number, please, no unit after it.

See these solved cases before continuing.
Cc1ccc(CNc2ncnc3ccc(-c4ccc(CO)o4)cc23)o1 : 1.95
CC(=O)Nc1ccccc1 [Acetanilide] : 0.504
CC(=O)OCC(=O)[C@@]1(O)[C@H](C)C[C@H]2[C@@H]3CCC4=CC(=O)C=C[C@]4(C)[C@@]3(F)[C@@H](O)C[C@@]21C [Dexamethasone Acetate] : 2.1

Let's switch to this compound now.
Prompt: Form field: reported Euclidean distance of CC[C@H]1OC(=O)[C@H](C)[C@@H](O[C@H]2C[C@@](C)(OC)[C@@H](O)[C@H](C)O2)[C@H](C)[C@@H](O[C@@H]2O[C@H](C)C[C@H](N(C)C)[C@H]2O)[C@](C)(O)C[C@@H](C)CN(C)[C@H](C)[C@@H](O)[C@]1(C)O [Azithromycin]
Response: 0.638
